Quick reference for IC50 among some compounds
System: HIV
Assay: Table 1 IC50 of the examples (assay method not given; patent concerns inhibiting HIV replication)
Type: cell-based
Conditions: Human immunodeficiency virus 1
Note: a bare number is incomplete; add the unit.

[ask] Any idea what IC50 was measured for Cc1ccc(C(=O)N2CCc3c2cc(C)c([C@H](OC(C)(C)C)C(=O)O)c3-c2cc(F)c3c(c2C)CCCO3)cc1C (atropisomer, axis not shown) [Example 94] ?
[reply] 4 nM

[ask] Any idea what IC50 was measured for COc1cc(C(=O)N2CCc3c2cc(C)c([C@H](OC(C)(C)C)C(=O)O)c3-c2cc(F)c3c(c2C)CCCO3)ccc1F (atropisomer, axis not shown) [Example 142] ?
[reply] 2 nM

[ask] Any idea what IC50 was measured for CC(=O)Nc1ccc(C(=O)N2CCc3c2cc(C)c([C@H](OC(C)(C)C)C(=O)O)c3-c2cc(F)c3c(c2C)CCCO3)cc1 (atropisomer, axis not shown) [Example 104] ?
[reply] 323 nM

[ask] Any idea what IC50 was measured for Cc1cc(F)ccc1C(=O)N1CCc2c1cc(C)c([C@H](OC(C)(C)C)C(=O)O)c2-c1cc(F)c2c(c1C)CCCO2 (atropisomer, axis not shown) [Example 62] ?
[reply] 6 nM

* * *

System: HIV
Assay: Table 1 IC50 of the examples (assay method not given; patent concerns inhibiting HIV replication)
Assay type: cell-based
Settings: Human immunodeficiency virus 1
metric: pIC50
pIC50 is a log-scale quantity: -log10 of the concentration expressed in molar.

[ask] Any idea what pIC50 was measured for COc1cc(F)ccc1C(=O)N1CCc2c1cc(C)c([C@H](OC(C)(C)C)C(=O)O)c2-c1ccc(C)cc1 [Example 21] ?
[reply] 8.05

[ask] Any idea what pIC50 was measured for Cc1ccc(C(=O)N2CCc3c2cc(C)c([C@H](OC(C)(C)C)C(=O)O)c3-c2cc(F)c3c(c2C)CCCO3)c(F)c1 (atropisomer, axis not shown) [Example 139] ?
[reply] 8.22

[ask] Any idea what pIC50 was measured for Cc1cc2c(c(-c3cc(F)c4c(c3C)CCCO4)c1C(OC(C)(C)C)C(=O)O)CCN2Cc1ccc(F)c(F)c1 (stereo not shown) [Example 2] ?
[reply] 6.48

[ask] Any idea what pIC50 was measured for Cc1cccc(C(=O)N2CCc3c2cc(C)c([C@H](OC(C)(C)C)C(=O)O)c3-c2cc(F)c3c(c2C)CCCO3)c1F (atropisomer, axis not shown) [Example 118] ?
[reply] 8.30

[ask] Any idea what pIC50 was measured for Cc1nc2cccc(C(=O)N3CCc4c3cc(C)c([C@H](OC(C)(C)C)C(=O)O)c4-c3cc(F)c4c(c3C)CCCO4)c2o1 (atropisomer, axis not shown) [Example 179] ?
[reply] 7.92

[ask] Any idea what pIC50 was measured for Cc1cc2c(c(-c3cc(F)c4c(c3C)CCCO4)c1[C@H](OC(C)(C)C)C(=O)O)CCN2C(=O)c1ccc(C(=O)N2CCCCC2)cc1 (atropisomer, axis not shown) [Example 112] ?
[reply] 6.53

[ask] Any idea what pIC50 was measured for Cc1ccccc1C(=O)N1CCc2c1cc(C)c([C@H](OC(C)(C)C)C(=O)O)c2-c1cc(F)c2c(c1C)CCCO2 (atropisomer, axis not shown) [Example 53] ?
[reply] 8.52

* * *

System: HIV
Experiment: Table 1 IC50 of the examples (assay method not given; patent concerns inhibiting HIV replication)
Assay type: cell-based
Conditions: Human immunodeficiency virus 1
Quick reference for pIC50 among some compounds
pIC50 is a log-scale quantity: -log10 of the concentration expressed in molar.

Consider the reported pIC50 for these compounds:
Cc1ccc(Cl)c(C(=O)N2CCc3c2cc(C)c([C@H](OC(C)(C)C)C(=O)O)c3-c2cc(F)c3c(c2C)CCCO3)c1 (atropisomer, axis not shown)	8.22
COc1ccc(C(=O)N2CCc3c2cc(C)c([C@H](OC(C)(C)C)C(=O)O)c3-c2cc(F)c3c(c2C)CCCO3)c(F)c1 (atropisomer, axis not shown)	8.22
COc1cc(C(=O)N2CCc3c2cc(C)c([C@H](OC(C)(C)C)C(=O)O)c3-c2cc(F)c3c(c2C)CCCO3)ccc1Cl (atropisomer, axis not shown)	8.52
Cc1ccc(-c2c3c(cc(C)c2[C@H](OC(C)(C)C)C(=O)O)N(C(=O)c2ccccn2)CC3)cc1	7.74
COc1ccc(F)cc1C(=O)N1CCc2c1cc(C)c([C@H](OC(C)(C)C)C(=O)O)c2-c1cc(F)c2c(c1C)CCCO2 (atropisomer, axis not shown)	8.30

[ask] Any idea what pIC50 was measured for Cc1cc2c(c(-c3cc(F)c4c(c3C)CCCO4)c1[C@H](OC(C)(C)C)C(=O)O)CCN2C(=O)c1cccc(F)c1Cl (atropisomer, axis not shown) ?
[reply] 8.70

* * *

System: HIV
Experiment: Table 1 IC50 of the examples (assay method not given; patent concerns inhibiting HIV replication)
Assay type: cell-based
Conditions: Human immunodeficiency virus 1
metric: pIC50
pIC50 is a log-scale quantity: -log10 of the concentration expressed in molar.

Cc1cc2c(c(-c3cc(F)c4c(c3C)CCCO4)c1[C@H](OC(C)(C)C)C(=O)O)CCN2C(=O)c1ccc(F)cc1F (atropisomer, axis not shown) [Example 60]	8.22
Cc1ccc(C(=O)N2CCc3c2cc(C)c([C@H](OC(C)(C)C)C(=O)O)c3-c2cc(F)c3c(c2C)CCCO3)c(Cl)c1 (atropisomer, axis not shown) [Example 137]	8.40
Cc1ccc(-c2c3c(cc(C)c2[C@H](OC(C)(C)C)C(=O)O)N(S(=O)(=O)N2CCCCC2)CC3)cc1 [Example 36]	7.19
COc1ccc(C(=O)N2CCc3c2cc(C)c([C@H](OC(C)(C)C)C(=O)O)c3-c2ccc(C)cc2)c(C)c1 [Example 10]	7.92

[ask] Any idea what pIC50 was measured for COc1c(C(=O)N2CCc3c2cc(C)c([C@H](OC(C)(C)C)C(=O)O)c3-c2cc(F)c3c(c2C)CCCO3)ccc(F)c1F (atropisomer, axis not shown) [Example 113] ?
[reply] 8.70

[ask] Any idea what pIC50 was measured for Cc1cc2c(c(-c3cc(F)c4c(c3C)CCCO4)c1[C@H](OC(C)(C)C)C(=O)O)CCN2C(=O)c1ccc(F)c(Cl)c1 (atropisomer, axis not shown) [Example 119] ?
[reply] 8.52

[ask] Any idea what pIC50 was measured for Cc1ccc(-c2c3c(cc(C)c2[C@H](OC(C)(C)C)C(=O)O)N(C(=O)c2ccc(Cl)cc2)CC3)cc1 [Example 22] ?
[reply] 7.96

[ask] Any idea what pIC50 was measured for Cc1ccc(C(=O)N2CCc3c2cc(C)c([C@H](OC(C)(C)C)C(=O)O)c3-c2cc(C(F)(F)F)c3c(c2C)CCCO3)cn1 (atropisomer, axis not shown) [Example 197] ?
[reply] 6.15

[ask] Any idea what pIC50 was measured for Cc1ccc(-c2c3c(cc(C)c2[C@H](OC(C)(C)C)C(=O)O)N(C(=O)c2cccc(F)c2F)CC3)cc1 [Example 43] ?
[reply] 8.00

[ask] Any idea what pIC50 was measured for Cc1ccc(-c2c3c(cc(C)c2[C@H](OC(C)(C)C)C(=O)O)N(C(=O)c2ccccc2F)CC3)cc1 [Example 18] ?
[reply] 7.96

[ask] Any idea what pIC50 was measured for Cc1cc2c(c(-c3cc(F)c4c(c3C)CCCO4)c1[C@H](OC(C)(C)C)C(=O)O)CCN2C(=O)c1cc(C(F)(F)F)cc(C(F)(F)F)c1 (atropisomer, axis not shown) [Example 133] ?
[reply] 7.17

[ask] Any idea what pIC50 was measured for Cc1cc2c(c(-c3cc(F)c4c(c3C)CCCO4)c1[C@H](OC(C)(C)C)C(=O)O)CCN2C(=O)C(C)(C)C (atropisomer, axis not shown) [Example 120] ?
[reply] 7.04

* * *

System: HIV
Experiment: Table 1 IC50 of the examples (assay method not given; patent concerns inhibiting HIV replication)
Assay type: cell-based
Settings: Human immunodeficiency virus 1
Quick reference for pIC50 among some molecules
pIC50 is a log-scale quantity: -log10 of the concentration expressed in molar.

Consider the reported pIC50 for these molecules:
COc1ccc(C(=O)N2CCc3c2cc(C)c([C@H](OC(C)(C)C)C(=O)O)c3-c2cc(F)c3c(c2C)CCCO3)cn1 (atropisomer, axis not shown)	7.85
COc1ccc(OC)c(C(=O)N2CCc3c2cc(C)c([C@H](OC(C)(C)C)C(=O)O)c3-c2cc(F)c3c(c2C)CCCO3)c1 (atropisomer, axis not shown)	7.96

Here's the next entry for you.
[ask] Identify the measured pIC50 of CCCNC(=O)N1CCCc2c1cc(C)c(C(OC(C)(C)C)C(=O)O)c2-c1ccc(C)cc1 (stereo not drawn) for HIV.
[reply] 5.37

* * *

Test system: HIV
Test: Table 1 IC50 of the examples (assay method not given; patent concerns inhibiting HIV replication)
Format: cell-based
Settings: Human immunodeficiency virus 1
metric: IC50 (nM)
State the answer as a number, implicitly in nM.

Consider the reported IC50 for these compounds:
COc1ccc(C(=O)N2CCc3c2cc(C)c([C@H](OC(C)(C)C)C(=O)O)c3-c2cc(F)c3c(c2C)CCCO3)cc1Cl (atropisomer, axis not shown)	3
Cc1cc2c(c(-c3cc(F)c4c(c3C)CCCO4)c1[C@H](OC(C)(C)C)C(=O)O)CCN2C(=O)c1ccc2c(c1)CCC2 (atropisomer, axis not shown)	17
Cc1ccccc1C(=O)N1CCc2c1cc(C)c([C@H](OC(C)(C)C)C(=O)O)c2-c1ccc2c(c1C)CCCO2 (atropisomer, axis not shown)	5

[ask] Any idea what IC50 was measured for `Cc1ccc(-c2c3c(cc(C)c2[C@H](OC(C)(C)C)C(=O)O)N(C(=O)c2cccc(F)c2)CC3)cc1` ?
[reply] 17

[ask] Any idea what IC50 was measured for Cc1cc2c(c(-c3cc(F)c4c(c3C)CCCO4)c1[C@H](OC(C)(C)C)C(=O)O)CCN2C(=O)CCc1ccccc1 (atropisomer, axis not shown) ?
[reply] 41

[ask] Any idea what IC50 was measured for Cc1ccc(-c2c3c(cc(C)c2C(OC(C)(C)C)C(=O)O)N(C(=O)OCc2ccccc2)CCC3)cc1 (stereo not drawn) ?
[reply] 1120
